Data provenance: paper PMC5540273

Test system: PCTK1
Construct: gene CDK16
EXPERIMENTAL PARAMETERS: concentration: 1 μM, replicates: in singlicate; n = 1
Examples of compounds with documented %Inh follow.
Provide the reading as a plain figure in %.

Known results for compounds:
Cl.c1ccc(Cn2ccc3cc(Nc4ncnc5ccccc45)ccc32)cc1 | 0
COc1ccc(Nc2nccc(N3CCC(NC(=O)Nc4ccc5c(c4)OCO5)C3)n2)cc1 (stereo not drawn) | 6

// query Request the reported %Inh associated with `Cc1ccc(C)c(NC(=O)NCCNc2ccnc(Nc3ccc(F)cc3)n2)c1`
// result 0

// query Moving on to `Cl.Cl.c1ccc(-c2cc3ccncc3cc2OC2CCNCC2)cc1`
// result 2

// query Moving on to `Cl.O=S(=O)(c1cccc(F)c1)c1ccc(Nc2ncnc3cc(Br)sc23)cc1Cl`
// result 4

// query Moving on to `COc1ccc(-c2oc3ncnc(N)c3c2-c2ccc(OC)cc2)cc1`
// result 0

// query Moving on to `CNc1nccc(-c2c(-c3ccc(F)cc3)ncn2CCCN2CCOCC2)n1`
// result 0

---

Tested on: TNK1
EXPERIMENTAL PARAMETERS: concentration: 1 μM, replicates: in singlicate; n = 1
Examples of molecules with documented %Inh follow.
Record the result as a number with its unit.

Cc1ccc(C)c(NC(=O)NCCNc2ccnc(Nc3ccc(F)cc3)n2)c1 | 0%

// query Request the reported %Inh associated with `O=C(c1ccc(-c2cc(-c3c[nH]nc3-c3ccccn3)ccn2)cc1)N1CCCC1`
// result 21%

// query Moving on to `c1ccc(-c2ccc3c(-c4ccnc(Nc5ccc6c(c5)OCCO6)n4)cnn3n2)cc1`
// result 0%

// query Moving on to `FC(F)(F)c1cc(Nc2nccc(-c3c(-c4ccc(Cl)cc4)nn4ncccc34)n2)ccc1Cl`
// result 21%

// query Moving on to CCCc1ccc(S(=O)(=O)NC2CCN(c3ccnc(Nc4ccc(OC)cc4)n3)C2)cc1 (centres unmarked)
// result 0%

// query Moving on to `Cc1ccc(NC(=O)c2cccc(C#N)c2)cc1-c1ccc(C(=O)Nc2ccncc2)cc1`
// result 16%

// query Moving on to `COc1cc2ncnc(Nc3ccc(OCc4ccccc4Br)c(Cl)c3)c2cc1OC.Cl`
// result 0%

// query Moving on to O=C(Nc1ccccc1F)NC1CCN(c2ccnc(Nc3ccc(F)cc3)n2)C1 (centres unmarked)
// result 0%

// query Moving on to `O=c1cc(N2CCOCC2)nc2n(Cc3cccc(Cl)c3)ccn12`
// result 0%

// query Moving on to `Cl.c1ccc(Cn2ccc3cc(Nc4ncnc5ccccc45)ccc32)cc1`
// result 0%

// query Moving on to `O=C(CCO)NCCn1ccc2ncnc(Nc3ccc(Oc4cccc(C(F)(F)F)c4)c(Cl)c3)c21`
// result 0%

---

Test system: CSNK1G1;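 note: kd values determined as follow-up on hits from a single-replicate KINOMEscan panel screen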
READOUT TYPE: Kd

// query Request the reported Kd associated with `COC(=O)c1c(-c2ccccc2)c2cc(Cl)ccc2c(=O)n1Cc1ccc(S(C)(=O)=O)cc1`
// result > 10 µM

---

Examples of compounds with documented %Inh follow.
Test system: PKAC-alpha
Construct: gene PRKACA
EXPERIMENTAL PARAMETERS: concentration: 1 μM, replicates: in singlicate; n = 1
Provide the reading as a plain figure in %.

Known results for compounds:
Cl.Cl.c1ccc(-c2cc3ccncc3cc2OC2CCNCC2)cc1 | 0
CNc1nccc(-c2c(-c3ccc(F)cc3)ncn2CCCN2CCOCC2)n1 | 1
FC(F)(F)c1ccc(-c2cc(-c3c[nH]nc3-c3ccccn3)ccn2)cc1 | 10
O=C(Nc1ccccc1)Nc1ccc(Oc2ccc3nccn3n2)cc1 | 0
CC(C)N1CCC(n2cnc(-c3ccc(F)cc3)c2-c2ccnc(N)n2)CC1 | 0
C[C@H]1CC[C@@H](C(=O)Nc2ccccc2)CN1c1cc(-c2ccc3c(N)n[nH]c3c2)nc(N)n1 | 0
NC(=O)c1sc(-n2cnc3ccccc32)cc1OCc1ccccc1F | 21
CC(=O)Nc1n[nH]c2ncc(-c3ccccc3)cc12 | 0

From here, focus on the item given below.
// query Notebook entry, PKAC-alpha assay: %Inh of `O=c1cc(N2CCOCC2)nc2n(Cc3cccc(Cl)c3)ccn12` = ?
// result 0

---

Examples of compounds with documented %Inh follow.
System: PCTK3
Construct: gene CDK18
EXPERIMENTAL PARAMETERS: concentration: 1 μM, replicates: in singlicate; n = 1
Provide the reading as a plain figure in %.

Known results for compounds:
COc1ccc(NC(=O)Nc2ccc(C)c(-c3ccc(C(=O)Nc4ccncc4)cc3)c2)cc1 | 0
Cc1ccc(O)cc1Nc1cc(C(F)(F)F)nc2ccc(-c3ccncc3)cc12 | 0
Cc1ccc(C)c(NC(=O)NCCNc2ccnc(Nc3ccc(F)cc3)n2)c1 | 0
O=C(CCO)NCCn1ccc2ncnc(Nc3ccc(Oc4cccc(C(F)(F)F)c4)c(Cl)c3)c21 | 0

// query Notebook entry, PCTK3 assay: %Inh of `C[C@@H]1CCN(C(=O)CO)C[C@@H]1N(C)c1ncnc2[nH]ccc12` = ?
// result 4

// query Moving on to CC(C)(C)OC(=O)NC1CCCN(c2cc(-c3ccc4c(N)n[nH]c4c3)nc(N)n2)C1 (stereo not drawn)
// result 17

// query Moving on to O=C(Nc1ccccc1F)NC1CCN(c2ccnc(Nc3ccc(F)cc3)n2)C1 (stereo not drawn)
// result 18

// query Moving on to `O=C(Nc1ccccc1)Nc1ccc(Oc2ccc3nccn3n2)cc1`
// result 0

// query Moving on to `FC(F)(F)c1ccc(-c2cc(-c3c[nH]nc3-c3ccccn3)ccn2)cc1`
// result 25

---

Test system: DYRK1A
EXPERIMENTAL PARAMETERS: concentration: 1 μM, replicates: in singlicate; n = 1
READOUT TYPE: %Inh (%)
Provide the reading as a plain figure in %.

Known results for molecules:
O=c1cc(N2CCOCC2)nc2n(Cc3cccc(Cl)c3)ccn12 [GSK2296823] | 28
Cn1cc(-c2ccc3c(c2)CCN3C(=O)Cc2cccc(C(F)(F)F)c2)c2c(N)ncnc21 [GSK2606414] | 16
Fc1ccc(Nc2nccc(-c3c(-c4ccc(Cl)cc4)nn4ncccc34)n2)cc1F [GW829058] | 0
COc1ccc(NC(=O)Nc2ccc(C)c(-c3ccc(C(=O)Nc4ccncc4)cc3)c2)cc1 [GSK1398475] | 2
CNc1nccc(-c2c(-c3ccc(F)cc3)ncn2C2CCN(C)CC2)n1 [SB-222903] | 0
FC(F)(F)c1ccc(-c2nn3ncccc3c2-c2ccnc(Nc3cccc(C(F)(F)F)c3)n2)cc1 [GW828205] | 0
COc1cc2c(Nc3cccc(NC(=O)c4ccccc4)c3)ncnc2cc1OCCCN1CCOCC1 [GSK223810] | 0
O=C(Nc1ccccc1F)NC1CCN(c2ccnc(Nc3ccc(F)cc3)n2)C1 (stereo not drawn) [GSK1379722] | 19
CC(=O)Nc1n[nH]c2ncc(-c3ccccc3)cc12 [SB-548492] | 32
O=C(Nc1ccccc1)Nc1ccc(Oc2ccc3nccn3n2)cc1 | 0

// query Request the reported %Inh associated with `Clc1cc(Nc2ncnc3cc[nH]c23)ccc1OCc1ccccn1`
// result 0

// query Moving on to CCn1c(-c2ccncc2)nc2cnccc21 [SB-735216]
// result 4

---

System: CDK4-cyclinD3
EXPERIMENTAL PARAMETERS: concentration: 1 μM, replicates: in singlicate; n = 1
Examples of compounds with documented %Inh follow.
Record the result as a number with its unit.

Fc1cccc(COc2ccc(Nc3ncnc4nn5ccccc5c34)cc2Cl)c1 | 0%
CCCc1ccc(S(=O)(=O)NC2CCN(c3ccnc(Nc4ccc(OC)cc4)n3)C2)cc1 (centres unmarked) | 0%
CS(=O)(=O)CCNCc1nc(-c2ccc3ncnc(Nc4ccc(OCc5cccc(F)c5)c(Cl)c4)c3c2)cs1.Cl | 0%
Cn1cc(-c2ccc3c(c2)CCN3C(=O)Cc2cccc(C(F)(F)F)c2)c2c(N)ncnc21 | 0%
COc1cc2ncnc(Nc3ccc(OCc4ccccc4Br)c(Cl)c3)c2cc1OC.Cl | 6%

// query Notebook entry, CDK4-cyclinD3 assay: %Inh of `Fc1ccc(-c2ncn(CCCNCc3ccccc3)c2-c2ccncc2)cc1` = ?
// result 13%

// query Moving on to CC(C)(C)OC(=O)NC1CCCN(c2cc(-c3ccc4c(N)n[nH]c4c3)nc(N)n2)C1 (centres unmarked)
// result 0%

// query Moving on to `Cl.Fc1ccccc1COc1ccc(Nc2ncnc3ccc(-c4nnc(C(F)(F)F)o4)cc23)cc1Cl`
// result 0%

---

Tested on: PAK1
EXPERIMENTAL PARAMETERS: concentration: 1 μM, replicates: in singlicate; n = 1
READOUT TYPE: %Inh (%)
Provide the reading as a plain figure in %.

COc1ccc(-c2oc3ncnc(N)c3c2-c2ccc(OC)cc2)cc1 | 0

// query Request the reported %Inh associated with `Fc1ccc(Nc2nccc(-c3c(-c4ccc(Cl)cc4)nn4ncccc34)n2)cc1F`
// result 21

// query Moving on to `O=C(Nc1n[nH]c2nc(-c3ccco3)c(Br)cc12)c1ccc(CN2CCCC2)cc1.O=C(O)[C@H](O)[C@@H](O)C(=O)O`
// result 0

// query Moving on to `Clc1ccc(-c2cc(-c3c[nH]nc3-c3ccccn3)ccn2)cc1`
// result 3
